- Tested on: benzodiazepin-receptors
- Method notes: Inhibition of 3H-Flunitrazepam binding (benzodiazepin-receptors)
- Experimental parameters: 1 × 10^-6 mole/l
Label Met when 3H-Flunitrazepam % Inhibition < 10%; otherwise Not met.

# Molecule, Category label
records = [
    ("Cl.O=c1ccc(-c2ccc(Cn3ccnc3)s2)nn1CCN1CCOCC1 [E]", "Not met"),
    ("Cl.O=c1ccc(-c2ccc(Cn3cccn3)s2)nn1CCN1CCOCC1 [D]", "Met"),
    ("Cc1cc(-c2ccccc2)nn(CCN2CCOCC2)c1=O.Cl [H, reference compound]", "Met"),
    ("Cl.O=c1ccc(-c2ccc(Cn3ccnc3)s2)nn1CCCN1CCCCC1 [G]", "Met"),
    ("Cl.O=c1ccc(-c2ccc(Cn3ccnc3)s2)nn1CCN1CCCCC1 [F]", "Not met"),
]

###

- Tested on: benzodiazepin-receptors
- Method notes: Inhibition of 3H-Flunitrazepam binding (benzodiazepin-receptors)
- Experimental parameters: 1 × 10^-4 mole/l
This listing pairs compounds with measured 3H-Flunitrazepam % Inhibition.

# Compound, Unit text, 3H-Flunitrazepam % Inhibition
records = [
    ("Cl.O=c1ccc(-c2ccc(Cn3cccn3)s2)nn1CCN1CCOCC1", "%", 49),
    ("Cl.O=c1ccc(-c2ccc(Cn3ccnc3)s2)nn1CCN1CCOCC1", "%", 74),
    ("Cc1cc(-c2ccccc2)nn(CCN2CCOCC2)c1=O.Cl [H, reference compound]", "%", 14),
    ("Cl.O=c1ccc(-c2ccc(Cn3ccnc3)s2)nn1CCN1CCCCC1", "%", 66),
]

meta.source: patent US4667033A
